These measurements were taken from patent US20250170248A1.

biological target: SMARCA2 (Homo sapiens, UniProt P51531); experiment: SMARCA2 Western blot degradation in MV4-11 cells; format: cell-based; parameters: SMARCA2/SMARCA4 protein degradation selectivity in MV4-11 cells; endogenous in cells; host or cells: MV4-11; settings: MV4-11 cells, 24 h; read-out: SMARCA2 MSD MV411 degradation 24 h: Mean external-Abs DC50
Sequence (P51531 whole entry): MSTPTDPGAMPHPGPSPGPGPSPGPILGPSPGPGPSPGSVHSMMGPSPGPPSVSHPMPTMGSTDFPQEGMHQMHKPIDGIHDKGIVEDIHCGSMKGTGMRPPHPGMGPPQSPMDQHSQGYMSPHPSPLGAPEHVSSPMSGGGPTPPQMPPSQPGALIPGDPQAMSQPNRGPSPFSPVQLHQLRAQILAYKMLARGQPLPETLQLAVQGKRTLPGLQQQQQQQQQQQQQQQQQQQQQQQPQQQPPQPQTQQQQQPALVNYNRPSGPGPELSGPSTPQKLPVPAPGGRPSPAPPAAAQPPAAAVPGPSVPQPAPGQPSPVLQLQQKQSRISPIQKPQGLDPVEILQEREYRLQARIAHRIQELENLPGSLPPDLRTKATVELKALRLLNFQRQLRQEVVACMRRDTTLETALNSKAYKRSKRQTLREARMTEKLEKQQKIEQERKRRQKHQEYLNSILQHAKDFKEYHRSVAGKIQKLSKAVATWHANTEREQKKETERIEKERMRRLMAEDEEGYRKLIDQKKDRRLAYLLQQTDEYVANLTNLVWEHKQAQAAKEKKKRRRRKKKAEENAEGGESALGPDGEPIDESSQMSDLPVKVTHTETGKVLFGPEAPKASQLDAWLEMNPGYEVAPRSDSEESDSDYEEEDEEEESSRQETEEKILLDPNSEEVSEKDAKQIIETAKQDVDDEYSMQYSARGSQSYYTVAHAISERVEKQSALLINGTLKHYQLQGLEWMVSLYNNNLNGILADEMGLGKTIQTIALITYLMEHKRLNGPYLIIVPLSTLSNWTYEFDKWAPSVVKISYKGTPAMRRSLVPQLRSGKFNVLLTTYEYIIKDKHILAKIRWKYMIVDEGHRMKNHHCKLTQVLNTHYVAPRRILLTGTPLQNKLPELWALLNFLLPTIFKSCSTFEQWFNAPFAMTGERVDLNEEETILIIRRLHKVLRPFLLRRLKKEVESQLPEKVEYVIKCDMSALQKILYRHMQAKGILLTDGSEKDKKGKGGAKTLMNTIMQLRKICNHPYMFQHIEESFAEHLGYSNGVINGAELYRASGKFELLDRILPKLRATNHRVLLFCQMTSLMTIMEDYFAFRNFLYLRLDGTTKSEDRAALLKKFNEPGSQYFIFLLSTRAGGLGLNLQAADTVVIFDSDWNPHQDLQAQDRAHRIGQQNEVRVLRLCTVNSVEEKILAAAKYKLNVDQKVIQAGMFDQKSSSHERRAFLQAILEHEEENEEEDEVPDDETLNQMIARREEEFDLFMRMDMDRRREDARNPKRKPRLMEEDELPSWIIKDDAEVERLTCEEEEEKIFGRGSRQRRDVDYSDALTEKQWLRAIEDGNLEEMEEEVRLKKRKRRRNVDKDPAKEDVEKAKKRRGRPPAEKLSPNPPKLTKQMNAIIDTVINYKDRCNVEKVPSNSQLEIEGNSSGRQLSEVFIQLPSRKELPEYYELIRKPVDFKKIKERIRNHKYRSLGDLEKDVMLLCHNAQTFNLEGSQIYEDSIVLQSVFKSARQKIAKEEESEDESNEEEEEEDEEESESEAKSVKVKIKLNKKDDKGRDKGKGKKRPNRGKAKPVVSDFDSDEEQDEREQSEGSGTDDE
DC50 for assorted compounds

compound | test system | DC50
C#Cc1ccc([C@H](C)NC(=O)[C@@H]2C[C@@H](O)CN2C(=O)[C@@H](NC(=O)[C@H]2CC3(C2)C[C@H](N2CCC(N4CCC(N5CCN6c7cc(-c8ccccc8O)nnc7NC[C@H]6C5)CC4)CC2)C3)C(C)(C)C)cc1 (single isomer, unassigned) [I-226] | SMARCA2 (Homo sapiens, UniProt P51531) | 10 to 100 nM
C#Cc1ccc([C@H](C)NC(=O)[C@@H]2C[C@@H](O)CN2C(=O)[C@H](c2cc(OCCN3CCC(N4CCC(N5CCC(CN6CCN7c8cc(-c9ccccc9O)nnc8NC[C@H]7C6)CC5)CC4)CC3)no2)C(C)C)cc1 (single isomer, unassigned) | SMARCA2 (Homo sapiens, UniProt P51531) | < 1 nM
C#Cc1ccc(CNC(=O)[C@@H]2C[C@@H](O)CN2C(=O)[C@@H](NC(=O)N2CC3(CC(N4CCC(N5CCC(N6CCc7[nH]c8nnc(-c9ccccc9O)cc8c7[C@H]6C)C5)CC4)C3)C2)C(C)(C)C)cc1 (mixture of isomers) | SMARCA2 (Homo sapiens, UniProt P51531) | 10 to 100 nM
C#CCOc1cc(C(C(=O)N2C[C@H](O)C[C@H]2C(=O)NCc2ccc(-c3scnc3C)cc2O[C@H]2CC[C@H](N3CCC(c4cnc(N5CCc6[nH]c7nnc(-c8ccccc8O)cc7c6[C@H]5C)nc4)CC3)CC2)C(C)C)on1 (single isomer, unassigned) | SMARCA2 (Homo sapiens, UniProt P51531) | < 1 nM
C#Cc1ccc(CNC(=O)[C@@H]2C[C@@H](O)CN2C(=O)[C@@H](NC(=O)C2CCN(C[C@H]3CC[C@H](N4CCc5[nH]c6nnc(-c7ccccc7O)cc6c5[C@H]4C)CC3)CC2)C(C)(C)C)cc1 (single isomer, unassigned) | SMARCA2 (Homo sapiens, UniProt P51531) | 1 to 10 nM
C#Cc1ccc(CNC(=O)[C@@H]2C[C@@H](O)CN2C(=O)[C@@H](NC(=O)N2CC3(CC(N4CCC(N5CCC(N6CCc7[nH]c8nnc(-c9ccccc9O)cc8c7[C@H]6C)CC5)CC4)C3)C2)C(C)(C)C)c(OC)c1 | SMARCA2 (Homo sapiens, UniProt P51531) | 10 to 100 nM
C#Cc1ccc(CNC(=O)[C@@H]2C[C@@H](O)CN2C(=O)[C@@H](NC(=O)N2CC3(CC(N4CC(N5CCC(c6cnc(N7CCc8[nH]c9nnc(-c%10ccccc%10O)cc9c8[C@H]7C)nc6)CC5)C4)C3)C2)C(C)(C)C)cc1 | SMARCA2 (Homo sapiens, UniProt P51531) | 10 to 100 nM

Next compound, DC50 to be filled in.
Would you kindly share the measured DC50 for C#Cc1ccc(CNC(=O)[C@@H]2C[C@@H](O)CN2C(=O)[C@@H](NC(=O)N2CC3(CC(N4CCC5(CCN(c6cnc(N7CCc8[nH]c9nnc(-c%10ccccc%10O)cc9c8C7C)nc6)C5)C4)C3)C2)C(C)(C)C)cc1 (some centres unmarked) ?
10 to 100 nM
